# system_under_test: T1, human CLEC-1A expressed on the cell membrane (human, UniProt Q8NC01 1-280)
# T1 construct: Endogenous on human U266 myeloma cells, on monocyte-derived TGFb-DC and macrophages; on CHO cells after transduction with a Clec-1 expressing lentivirus; also called U266 CLEC1; CLEC-1A on U266 cells
# T1 sequence: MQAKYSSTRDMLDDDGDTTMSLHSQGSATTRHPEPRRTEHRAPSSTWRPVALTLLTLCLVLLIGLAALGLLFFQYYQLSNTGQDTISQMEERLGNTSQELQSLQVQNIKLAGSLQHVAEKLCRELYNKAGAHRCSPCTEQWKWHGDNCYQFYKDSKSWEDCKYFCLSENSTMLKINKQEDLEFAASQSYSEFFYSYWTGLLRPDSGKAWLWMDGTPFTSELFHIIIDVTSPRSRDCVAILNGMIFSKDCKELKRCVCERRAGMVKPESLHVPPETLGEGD
# measurement_description: flow cytometry on U266 cells; printed as ED50, read-out % + cells
EC50 reference
// note: answer is a bare numeric in µg/mL

>  <binder>
murine anti-hCLEC1 antibody 15E3-G3 (antibody, V domains shown, Mouse hybridoma antibody) VH: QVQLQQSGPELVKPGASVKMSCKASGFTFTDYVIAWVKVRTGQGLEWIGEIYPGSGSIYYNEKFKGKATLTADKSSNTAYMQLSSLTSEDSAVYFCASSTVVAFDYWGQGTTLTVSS VL: EIVLTQSPTTLAASPGEKIIITCSDSSSISSNYLHWYQQKPGFSPKLLIYGTSNLASGVPARFSGSGSGTTYSLTIGTMEAEDVATYYCQQGSSIPRTFGGGTKLEIK

>  <unit_spec>
µg/mL

>  <measured_number>
0.074

$$$$
>  <binder>
murine anti-hCLEC1 antibody 10F4-H2 (antibody, V domains shown, Mouse hybridoma antibody) VH: QVQLQQSGTELARPGASVKMSCKASGYIFTDYTIHWVKQRPGQGLEWVGYINPSSGYTNYNQKFKAKATLTADKSSSTAYMQLSSLTSEDSAVYYCTPMFRRSYFDYWGQGTTLTVSS VL: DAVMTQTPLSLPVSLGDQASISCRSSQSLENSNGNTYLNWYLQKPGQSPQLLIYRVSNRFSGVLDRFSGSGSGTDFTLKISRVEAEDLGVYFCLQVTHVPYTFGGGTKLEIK

>  <unit_spec>
µg/mL

>  <measured_number>
0.034

$$$$
>  <binder>
murine anti-hCLEC1 antibody 5D1-A5 (antibody, V domains shown, Mouse hybridoma antibody) VH: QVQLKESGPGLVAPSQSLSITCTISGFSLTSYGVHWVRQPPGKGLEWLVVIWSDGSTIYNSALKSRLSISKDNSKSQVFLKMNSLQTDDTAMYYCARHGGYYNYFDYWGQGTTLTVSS VL: DIQMNQSPSSLSASLGDTITITCHASQNINVWLSWYQQKPGNIPKLLIYKASNLHTGVPSRFSGSGSGTGFTLTISSLQPEDIATYYCQQGQSYWTFGGGTKLEIK

>  <unit_spec>
µg/mL

>  <measured_number>
0.0064

$$$$

Next:
Could you please provide reported EC50 for murine anti-hCLEC1 antibody 14H9-F3 (antibody, V domains shown, Mouse hybridoma antibody) VH: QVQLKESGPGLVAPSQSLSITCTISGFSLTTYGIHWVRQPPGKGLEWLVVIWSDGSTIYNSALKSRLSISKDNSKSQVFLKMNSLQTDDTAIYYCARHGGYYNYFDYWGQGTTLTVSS VL: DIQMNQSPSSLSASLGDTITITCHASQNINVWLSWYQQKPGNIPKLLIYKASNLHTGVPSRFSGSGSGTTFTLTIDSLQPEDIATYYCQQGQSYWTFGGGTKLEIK ? Thanks!
0.0065
